# testSystem: Dual specificity protein phosphatase 3 (Homo sapiens)
# assay: VHR1 phosphatase inhibitors, primary screen, biochemical, colorimetric, HTS (AID 1992)
# experimentalContext: recombinant VHR phosphatase, colorimetric substrate read-out; at 20 µM
Hit rate of the full screen: of about 50,000 compounds, about 350 (0.7%) were called active. Rule as the data show it: active = inhibition above about 60%; inactive = the rest. This is one part of a sample in which actives are shown more often than they occur.
Select the matching outcome among class 1 (active), class 0 (inactive)

*Q* Could you please tell me the result logged for "Cc1[nH]n(-c2ccc(Cl)cc2)c(=O)c1/C=N/NC(=O)c1ccccc1[N+](=O)[O-]" in this assay?
*A* class 0

*Q* Could you please tell me the result logged for "O=C(Nc1cccc(Br)c1)C(=O)NC1CCCC1" in this assay?
*A* class 0

*Q* Could you please tell me the result logged for "O=C(NCCCn1ccnc1)c1ccccc1[N+](=O)[O-]" in this assay?
*A* class 0

*Q* Could you please tell me the result logged for CCOC(=O)C(=O)C1CCc2c([nH]c3ccc(C)cc23)C1=O (stereo not drawn) in this assay?
*A* class 0

*Q* Could you please tell me the result logged for "CCOC(=O)Cc1csc(NC(=O)COc2cc(C)ccc2C(C)(C)C)n1" in this assay?
*A* class 0

*Q* Could you please tell me the result logged for "COc1ccc(OC)c(/C=C/C(=O)Nc2ccc(N(C)C)cc2)c1" in this assay?
*A* class 0

*Q* Could you please tell me the result logged for "O=C1NC(=O)C(=Cc2cccc(OCc3ccccc3)c2)C(=O)N1" in this assay?
*A* class 0

*Q* Could you please tell me the result logged for "O=C1NC(=S)N(c2ccc(Cl)cc2)C(=O)/C1=C/c1ccc(-c2ccccc2C(=O)O)o1" in this assay?
*A* class 1

*Q* Could you please tell me the result logged for "Cc1cc(C)c2nc3s/c(=C\c4ccc(-c5ccccc5C(=O)O)o4)c(=O)n3c2c1" in this assay?
*A* class 1

*Q* Could you please tell me the result logged for O=C(O)CCCCCN1C(=O)C(=O)/C(=C(/O)c2ccc(F)cc2)C1c1cccc([N+](=O)[O-])c1 (stereo not drawn) in this assay?
*A* class 0

*Q* Could you please tell me the result logged for "CC(C)CN1C(=O)/C(=C/c2cccc(Oc3ccccc3)c2)SC1=S" in this assay?
*A* class 0

*Q* Could you please tell me the result logged for "COc1ccc(C(=O)N2CCN(Cc3cccc(OC)c3OC)CC2)cc1OC" in this assay?
*A* class 0

*Q* Could you please tell me the result logged for "CCOC(=O)c1ccc(NC(=O)/C(C#N)=C2\NC(C)(C)Cc3ccccc32)cc1" in this assay?
*A* class 0

* * *

# testSystem: Dual specificity protein phosphatase 3 (Homo sapiens) (UniProt P51452)
# Sequence (P51452 whole entry, looked up): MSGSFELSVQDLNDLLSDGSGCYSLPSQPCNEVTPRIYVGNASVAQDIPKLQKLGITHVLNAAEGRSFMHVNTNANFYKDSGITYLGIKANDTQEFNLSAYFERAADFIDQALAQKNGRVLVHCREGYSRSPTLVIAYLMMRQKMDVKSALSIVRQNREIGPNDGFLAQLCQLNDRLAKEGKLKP
# assay: VHR1 phosphatase inhibitors, primary screen, biochemical, colorimetric, HTS (AID 1992)
# experimentalContext: recombinant VHR phosphatase, colorimetric substrate read-out; at 20 µM
About 350 (0.7%) of roughly 50,000 compounds were called active. Cut-off read from the data, not from the text of the source: active = inhibition above about 60%; inactive = the rest. The entries come from a sample that favours actives as a whole.
Select the matching outcome among y = active, n = inactive

*Q* Could you please tell me the result logged for "CCOC(=O)CCCN1C(=O)/C(=C/c2ccccc2)SC1=S" in this assay?
*A* n

*Q* Could you please tell me the result logged for "CC(=Nc1cc(Cl)ccc1O)c1c(-c2ccccc2)[nH]n(-c2nc3ccccc3s2)c1=O" in this assay?
*A* n

*Q* Could you please tell me the result logged for "CCN(CC)c1ccc(NC(=O)c2oc3ccccc3c2C)cc1" in this assay?
*A* n

*Q* Could you please tell me the result logged for Cc1cc(Cl)ccc1NC1=CC(=O)CC(c2ccccc2)C1 (stereo not drawn) in this assay?
*A* n

*Q* Could you please tell me the result logged for O=C1N/C(=N/N=C/c2ccc3c(c2)OCO3)SC1c1ccccc1 (stereo not drawn) in this assay?
*A* n

*Q* Could you please tell me the result logged for "C#CCn1cc(/C=C(/C#N)C(=O)Nc2ccc(Cl)cc2)c2ccccc21" in this assay?
*A* n

*Q* Could you please tell me the result logged for "C=CCN1C(=O)/C(=C\c2cc(OC)c(O)c([N+](=O)[O-])c2)C(=O)NC1=S" in this assay?
*A* n

*Q* Could you please tell me the result logged for "CCc1cccc(CC)c1NC(=O)c1ccccc1OC" in this assay?
*A* n

*Q* Could you please tell me the result logged for "O=C(NCc1ccccc1)c1ccc(CN2CCN(c3ccccc3)CC2)cc1" in this assay?
*A* n

*Q* Could you please tell me the result logged for "Fc1cnc(NN=Cc2cccs2)nc1N1CCOCC1" in this assay?
*A* n

*Q* Could you please tell me the result logged for "COc1ccc(N2C(=O)C=CC2=O)c([N+](=O)[O-])c1" in this assay?
*A* y

*Q* Could you please tell me the result logged for "CCOc1ccc(N2C(=O)S/C(=C\c3ccccc3OC)C2=O)cc1" in this assay?
*A* n

*Q* Could you please tell me the result logged for "CC1=NN(c2cccc(Cl)c2)C(=O)/C1=C\c1c(C)[nH]n(-c2ccccc2)c1=O" in this assay?
*A* n

*Q* Could you please tell me the result logged for "CCOc1ccc(-c2cc(C(=O)Nc3ccncc3)c3ccccc3n2)cc1" in this assay?
*A* n

*Q* Could you please tell me the result logged for "CCN(C=NC1=NN(c2ccccc2)CC1)CC" in this assay?
*A* n

*Q* Could you please tell me the result logged for "CCOC(=O)c1c(NC(=O)c2ccccc2OC)sc(C(=O)Nc2ccccc2F)c1C" in this assay?
*A* n

*Q* Could you please tell me the result logged for CC(=O)Nc1ccc(N2C(=O)C3C4C=CC(CC4)C3C2=O)cc1 (stereo not drawn) in this assay?
*A* n

*Q* Could you please tell me the result logged for "COc1ccc(Nc2ncnc3ccc(Br)cc23)cc1" in this assay?
*A* n

*Q* Could you please tell me the result logged for "C/C(=N/NC(=O)c1ccccc1C)c1ccc(NC(=O)C(F)(F)F)cc1" in this assay?
*A* n

*Q* Could you please tell me the result logged for "N#C/C(=C\c1cn(CC(=O)Nc2ccccc2)c2ccccc12)C(=O)Nc1ccc(F)cc1" in this assay?
*A* n

*Q* Could you please tell me the result logged for Cc1ccc2c(c1)C(c1ccccc1[N+](=O)[O-])CC(=O)N2 (stereo not drawn) in this assay?
*A* n

*Q* Could you please tell me the result logged for "Cc1ccc(-c2ccc(/C=C3\Sc4ccccc4C3=O)o2)c([N+](=O)[O-])c1" in this assay?
*A* n

*Q* Could you please tell me the result logged for "COc1cccc(NC(=O)CN(c2cccc([N+](=O)[O-])c2)S(=O)(=O)c2ccccc2)c1" in this assay?
*A* n

*Q* Could you please tell me the result logged for "O=C(O)CCC(=O)Nc1cc(Cl)cc(Cl)c1" in this assay?
*A* n

*Q* Could you please tell me the result logged for CC(C)(C)c1cc(N2C(=O)C(=O)/C(=C(\O)c3ccccc3)C2c2cccc([N+](=O)[O-])c2)no1 (stereo not drawn) in this assay?
*A* n

*Q* Could you please tell me the result logged for "Cc1ccc(S(=O)(=O)NCCNS(C)(=O)=O)cc1[N+](=O)[O-]" in this assay?
*A* n

*Q* Could you please tell me the result logged for "CCOC(=O)c1c(NC(=O)c2ccc(OC)c(OC)c2)sc(C(=O)Nc2ccc(C)cc2C)c1C" in this assay?
*A* n

*Q* Could you please tell me the result logged for "CC(C)c1ccc(NC(=O)CN(c2ccc(Oc3ccccc3)cc2)S(C)(=O)=O)cc1" in this assay?
*A* n

*Q* Could you please tell me the result logged for "COc1ccc(C(=O)Nc2ccc3oc(-c4cc(Cl)c(OC)c(Cl)c4)nc3c2)cc1OC" in this assay?
*A* n

*Q* Could you please tell me the result logged for COc1ccc(N2C(=O)C3C4C=CC(C4=C(C)C)C3C2=O)c([N+](=O)[O-])c1 (stereo not drawn) in this assay?
*A* n

*Q* Could you please tell me the result logged for "COc1ccccc1OCCCCOc1c(C)cccc1C" in this assay?
*A* n

*Q* Could you please tell me the result logged for "Cc1cc(C(=O)N/N=C/c2ccc(Br)c([N+](=O)[O-])c2)n[nH]1" in this assay?
*A* n

*Q* Could you please tell me the result logged for "COc1ccc(C(=O)/C=C/Nc2cccc(Cl)c2Cl)cc1" in this assay?
*A* n
